Origin of values: ChEMBL document CHEMBL1140094

protocolDetails: Inhibition of tubulin polymerization
measurementType: IC50 (nM)
Numeric answer only, unit nM assumed.

Q: Give the measured IC50 of `COc1cc2c(c(OC)c1OC)-c1ccc(OC)c(=O)cc1[C@@H](NC(C)=O)CC2` .
Ans: 2200

---

Tested on: PANC-1
protocolDetails: Growth inhibition of human Panc1 cells at 1 uM after 96 hrs by MTT assay relative to control
Format: functional
assaySetup: PANC-1, 96 h, values are per cent of control
measurementType: viability, % of control at 1 µM (%)
Numeric answer only, unit % assumed.

// worked examples, viability, % of control at 1 µM included
• C=CCNC(=O)c1cccc(Sc2ccc(NC(=O)NC(=O)c3ccccc3Cl)cc2)c1 = 69
• CNC(=O)c1cccc(Sc2ccc(NC(=O)NC(=O)c3ccccc3[N+](=O)[O-])cc2)c1 = 60
• COc1ccc(C(=O)NC(=O)Nc2ccc(Sc3cccc(C(=O)NCc4ccccc4)c3)cc2)c(Cl)c1OC = 89

Q: Give the measured viability, % of control at 1 µM of `C=CCNC(=O)c1cccc(Sc2ccc(NC(=O)NC(=O)c3ccc(OC)c(OC)c3Cl)cc2)c1` .
Ans: 88

Q: Give the measured viability, % of control at 1 µM of `CNC(=O)c1cccc(Sc2ccc(NC(=O)NC(=O)c3cc(OC)cc(OC)c3Cl)cc2)c1` .
Ans: 77

Q: Give the measured viability, % of control at 1 µM of `C=CCNC(=O)c1cccc(Oc2ccc(NC(=S)NC(=O)c3ccccc3)cc2)c1` .
Ans: 97
